System: MCF7
Assay: Cytotoxicity against human MCF7 cells after 96 hrs by SRB assay
Assay type: functional, cell-based
Settings: MCF7, 96 h
The label Condition met is reserved for EC50 strictly under 8 µM; Condition not met covers values equal to or above it.

Here are 10 compounds together with their reported answers.
>  <compound-smiles>
CN(O)C(=O)[C@]12CCC(C)(C)C[C@H]1C1=CC[C@@H]3[C@@]4(C)CCC(=O)C(C)(C)[C@@H]4CC[C@@]3(C)[C@]1(C)CC2

>  <assigned-class>
Condition not met

$$$$
>  <compound-smiles>
CC(=O)O[C@H]1CC[C@]2(C)[C@H]3CC=C4[C@@H]5[C@@H](C)[C@H](C)CC[C@]5(C(=O)NO)CC[C@@]4(C)[C@]3(C)CC[C@H]2C1(C)C

>  <assigned-class>
Condition met

$$$$
>  <compound-smiles>
CC1(C)CC[C@]2(C(=O)O)CC[C@]3(C)C(=CC[C@@H]4[C@@]5(C)CC[C@H](O)C(C)(C)[C@@H]5CC[C@]43C)[C@@H]2C1

>  <assigned-class>
Condition not met

$$$$
>  <compound-smiles>
CONC(=O)[C@]12CC[C@@H](C)[C@H](C)[C@H]1C1=CC[C@@H]3[C@@]4(C)CC[C@H](O)C(C)(C)[C@@H]4CC[C@@]3(C)[C@]1(C)CC2

>  <assigned-class>
Condition not met

$$$$
>  <compound-smiles>
CONC(=O)[C@]12CCC(C)(C)C[C@H]1C1=CC[C@@H]3[C@@]4(C)CCC(=O)C(C)(C)[C@@H]4CC[C@@]3(C)[C@]1(C)CC2

>  <assigned-class>
Condition not met

$$$$
>  <compound-smiles>
CONC(=O)[C@]12CC[C@@H](C)[C@H](C)[C@H]1C1=CC[C@@H]3[C@@]4(C)CC[C@H](OC(C)=O)C(C)(C)[C@@H]4CC[C@@]3(C)[C@]1(C)CC2

>  <assigned-class>
Condition met

$$$$
>  <compound-smiles>
CON(C)C(=O)[C@]12CC[C@@H](C)[C@H](C)[C@H]1C1=CC[C@@H]3[C@@]4(C)CCC(=O)C(C)(C)[C@@H]4CC[C@@]3(C)[C@]1(C)CC2

>  <assigned-class>
Condition not met

$$$$
>  <compound-smiles>
CONC(=O)[C@]12CCC(C)(C)C[C@H]1C1=CC[C@@H]3[C@@]4(C)CC[C@H](O)C(C)(C)[C@@H]4CC[C@@]3(C)[C@]1(C)CC2

>  <assigned-class>
Condition not met

$$$$
>  <compound-smiles>
CONC(=O)[C@]12CCC(C)(C)C[C@H]1C1=CC[C@@H]3[C@@]4(C)CC[C@H](OC(C)=O)C(C)(C)[C@@H]4CC[C@@]3(C)[C@]1(C)CC2

>  <assigned-class>
Condition not met

$$$$
>  <compound-smiles>
CC(=O)O[C@H]1CC[C@]2(C)[C@H]3CC=C4[C@@H]5CC(C)(C)CC[C@]5(C(=O)N(C)O)CC[C@@]4(C)[C@]3(C)CC[C@H]2C1(C)C

>  <assigned-class>
Condition met

$$$$

Now look at this entry.
Enquiry: Is 8 µM strictly greater than the compound's reported EC50? compound: CN(O)C(=O)[C@]12CCC(C)(C)C[C@H]1C1=CC[C@@H]3[C@@]4(C)CC[C@H](O)C(C)(C)[C@@H]4CC[C@@]3(C)[C@]1(C)CC2
Return: Condition not met

Cited source: ChEMBL document CHEMBL3751798
